assay: UV-Vis pH-dependent colour change (bathochromic shift) of MSK-777; type: physicochemical; settings: colour change red to blue, basic conditions; read-out: approximate averaged pKa values of the acidic phenol protons (inflection point of colour change)
recordedMetric: pKa

// pKa lookup, molecule = CC1OC2CC(=O)OC2C2=C1C(=O)c1c(O)c3c(c(O)c1C2=O)C1CC(OC2CCC(O)C(C)O2)C3(O)C(C)O1 (stereo not shown) [MSK-777, granaticin B] , result: ~8.5
